# system-name: Glucocorticoid receptor (Homo sapiens) (UniProt P04150)
# Sequence (P04150 whole entry, looked up): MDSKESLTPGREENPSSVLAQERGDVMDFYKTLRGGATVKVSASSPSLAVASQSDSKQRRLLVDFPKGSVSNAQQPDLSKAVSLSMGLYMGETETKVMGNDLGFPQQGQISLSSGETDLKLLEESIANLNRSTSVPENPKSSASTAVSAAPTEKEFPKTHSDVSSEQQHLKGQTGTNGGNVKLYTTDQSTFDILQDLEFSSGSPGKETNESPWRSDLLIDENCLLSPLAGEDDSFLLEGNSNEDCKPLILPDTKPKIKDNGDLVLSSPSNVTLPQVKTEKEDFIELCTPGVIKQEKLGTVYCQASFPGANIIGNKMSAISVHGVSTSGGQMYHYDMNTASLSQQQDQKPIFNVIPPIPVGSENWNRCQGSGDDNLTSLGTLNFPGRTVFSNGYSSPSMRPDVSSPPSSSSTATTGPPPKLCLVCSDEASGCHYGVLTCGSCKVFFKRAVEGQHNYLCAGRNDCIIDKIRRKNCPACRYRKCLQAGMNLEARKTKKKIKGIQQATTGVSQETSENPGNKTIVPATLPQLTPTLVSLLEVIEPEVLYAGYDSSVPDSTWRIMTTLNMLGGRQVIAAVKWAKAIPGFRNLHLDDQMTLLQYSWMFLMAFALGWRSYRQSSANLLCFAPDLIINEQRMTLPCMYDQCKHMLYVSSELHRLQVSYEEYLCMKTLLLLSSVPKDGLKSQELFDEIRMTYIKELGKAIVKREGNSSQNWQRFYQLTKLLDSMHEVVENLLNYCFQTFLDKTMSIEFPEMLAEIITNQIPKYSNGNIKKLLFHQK
# test: qHTS assay for small molecule agonists of glucocorticoid receptor signaling (AID 588532);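 note: 100% = dexamethasone at 0.1 µM and 0% = DMSO only wells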
# settings: HeLa MMTV-bla, beta-lactamase ratio, agonist, 18 h; hits give high values; percent of dexamethasone control, DMSO zero
Records with an inconclusive call do not appear.
The molecules listed here are annotated with their activation.
The reply should be a number in %, with the unit left off.

Entry under review: O=C(/C=C/c1ccc(O)c(O)c1)O[C@@H](C(=O)O)[C@@H](OC(=O)/C=C/c1ccc(O)c(O)c1)C(=O)O . Reported activation?
1.43

Recorded activation of c1ccc2scnc2c1 , please.
-6.61

# lookup: activation of O=C1CCc2ccccc2O1
-2.22

###

# system-name: Rap guanine nucleotide exchange factor 4 (Homo sapiens) (UniProt Q8WZA2)
# Sequence (Q8WZA2 whole entry, looked up): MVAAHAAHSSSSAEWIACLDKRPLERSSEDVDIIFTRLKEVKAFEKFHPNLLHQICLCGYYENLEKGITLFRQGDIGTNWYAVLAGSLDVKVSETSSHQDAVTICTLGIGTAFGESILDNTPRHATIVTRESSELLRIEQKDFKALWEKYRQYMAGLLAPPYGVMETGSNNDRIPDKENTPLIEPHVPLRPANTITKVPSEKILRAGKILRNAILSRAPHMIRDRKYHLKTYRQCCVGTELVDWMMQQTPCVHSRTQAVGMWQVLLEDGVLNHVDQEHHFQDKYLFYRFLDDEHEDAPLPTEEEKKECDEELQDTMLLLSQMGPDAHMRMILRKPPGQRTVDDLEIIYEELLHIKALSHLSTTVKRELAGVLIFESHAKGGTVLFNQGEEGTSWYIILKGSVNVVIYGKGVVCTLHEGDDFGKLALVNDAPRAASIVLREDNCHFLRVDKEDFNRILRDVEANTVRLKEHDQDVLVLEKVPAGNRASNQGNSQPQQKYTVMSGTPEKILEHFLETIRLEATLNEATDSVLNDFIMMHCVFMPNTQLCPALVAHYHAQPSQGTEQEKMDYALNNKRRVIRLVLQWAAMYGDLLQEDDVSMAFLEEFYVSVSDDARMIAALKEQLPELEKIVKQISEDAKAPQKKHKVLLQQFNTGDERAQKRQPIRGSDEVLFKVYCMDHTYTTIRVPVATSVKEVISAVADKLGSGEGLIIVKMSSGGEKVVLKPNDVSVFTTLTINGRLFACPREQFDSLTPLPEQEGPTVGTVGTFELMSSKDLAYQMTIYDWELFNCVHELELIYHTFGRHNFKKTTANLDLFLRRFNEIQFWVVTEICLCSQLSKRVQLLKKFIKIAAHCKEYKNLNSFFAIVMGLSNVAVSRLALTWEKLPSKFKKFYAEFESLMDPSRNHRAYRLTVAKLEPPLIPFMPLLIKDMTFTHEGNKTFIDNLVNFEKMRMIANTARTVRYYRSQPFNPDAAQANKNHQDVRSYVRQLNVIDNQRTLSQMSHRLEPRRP
# test: Confirmatory qHTS for antagonist of cAMP-regulated guanine nucleotide exchange factor 4 (EPAC2) (AID 1645885); note: nearly all actives have a fitted effect of over 25% in size
# settings: EPAC2 Rap1B-BODIPY-GDP exchange fluorescence, biochemical; series mostly up to 12.7 µM
Results filed as inconclusive are left out. Calls of active or inactive are those of the source. Calls come from the whole dose curve; as a rule, active = well fitted inhibition curve with a large enough effect; inconclusive = small, poorly fitted or top-dose-only effect; inactive = no such curve, though single readings can be large or run the other way.
Please reply with one of these outcomes: active, inactive

Example entries and their recorded answers appear below.
INSERT INTO measurements (compound, system_name, group) VALUES
  ('O=C(CSc1ccc(-c2ccco2)nn1)c1cccc([N+](=O)[O-])c1', 'Rap guanine nucleotide exchange factor 4 (Homo sapiens) (UniProt Q8WZA2)', 'inactive'),
  ('CN(C)c1ncc2nc(CCc3ccccc3)c(=O)n(Cc3cccs3)c2n1', 'Rap guanine nucleotide exchange factor 4 (Homo sapiens) (UniProt Q8WZA2)', 'inactive'),
  ('Cc1ccc(OCC(=O)Nc2ccc(C)c(S(=O)(=O)N3CCCCCC3)c2)c([N+](=O)[O-])n1', 'Rap guanine nucleotide exchange factor 4 (Homo sapiens) (UniProt Q8WZA2)', 'inactive'),
  ('CCOC(=O)c1ccc2[nH]cc(C(C)=O)c(=O)c2c1', 'Rap guanine nucleotide exchange factor 4 (Homo sapiens) (UniProt Q8WZA2)', 'inactive'),
  ('COc1ccc2oc(C)c(C(=O)c3ccccc3)c2c1', 'Rap guanine nucleotide exchange factor 4 (Homo sapiens) (UniProt Q8WZA2)', 'inactive'),
  ('CN1C(=O)c2cccc3c(N)ccc(c23)C1=O', 'Rap guanine nucleotide exchange factor 4 (Homo sapiens) (UniProt Q8WZA2)', 'inactive');

Query: recorded result category for COc1ccccc1N1CSC2=C(C#N)C(c3ccc(SC)cc3)CC(=O)N2C1 (stereo not drawn) in this test
inactive

Kindly provide the recorded test outcome for the following compound: Cn1cccc1C(=O)NC(=O)COC(=O)c1ccc(S(C)(=O)=O)c([N+](=O)[O-])c1
inactive

Could you check what this test reported for CCOC(=O)C(C)n1nc(-c2ccccc2)c2ccccc2c1=O (stereo not drawn) ?
inactive

// outcome(item) with item = O=C1c2cccc3c(O)ccc(c23)C(=O)N1Cc1ccco1
active

###

# system-name: Rap guanine nucleotide exchange factor 3 (Homo sapiens) (UniProt O95398)
# test: Counterscreen qHTS for agonist of cAMP-regulated guanine nucleotide exchange factor 3 (EPAC1) (AID 1645889); note: % of control where 0% means no effect; nearly all actives have a fitted effect of over 40% in size
# settings: EPAC1 Rap1B-BODIPY-GDP exchange, fluorescence; series mostly up to 154 µM
Results filed as inconclusive are left out. Active and inactive are the calls of the source. The call rests on the fitted dose curve; in most records, active means well fitted activation curve with a large enough effect; inconclusive means small, poorly fitted or top-dose-only effect, or another doubt; inactive means no such curve, though single readings can be large or run the other way.
assay-readout: activation

INSERT INTO assay_data (molecule, reported_result) VALUES
  ('CSc1nc(N)c(C(=O)N(c2ccccc2)c2ccccc2)s1', '22.8% [at 30.8 µM] (inactive)'),
  ('CCO[C@@H]1OC(C(=O)N2CCN(Cc3ccc4c(c3)OCO4)CC2)=C[C@H](C2CCCCC2)[C@H]1CCCO', 'inactive'),
  ('COc1ccc(-c2cc(=O)oc3c(O)c(O)ccc23)cc1', 'inactive'),
  ('CCOc1cc(/C=N/O)cc(Br)c1OCc1ccc(Cl)cc1', 'inactive'),
  ('O=c1cc(-c2c(O)c3ccccc3n(Cc3ccccc3)c2=O)[nH][nH]1', 'inactive');

Tell me the measured activation of COc1ccccc1C1CC(=O)Oc2cc(C)c(Cl)c(C)c21 (stereo not given) , please.
15.1% [at 30.8 µM] (inactive)

Which activation value is on record for COC(=O)c1ccccc1NC(=O)Cn1nc(C(F)(F)F)c2c1CCCC2 ?
inactive

Consider the molecule O=C(Nc1ccccc1Cc1ccccc1)c1ccccc1NS(=O)(=O)c1ccc(Cl)s1 and give its measured activation.
8.31% [at 30.8 µM] (inactive)

Query: activation; subject: CC1C(=O)N(Cc2cn(Cc3ccco3)nn2)CCS(=O)(=O)N1Cc1ccc(-c2cccnc2)cc1 (stereo not given)
21.5% [at 30.8 µM] (inactive)

Param item = CN(Cc1cccs1)c1nc(-c2cccnc2)nc2ccccc12 ; retrieve measured activation.
51% [at 30.8 µM] (inactive)
